target: IDO1 (Homo sapiens, UniProt P14902); assay: IDO1 Cellular Assay in Hela Cells Stimulated with IFNγ; assay type: cell-based; parameters: endogenous in cells; host or cells: HeLa cells stimulated with IFNγ (100 ng/mL); conditions: Hela cells stimulated with IFNγ 100 ng/mL, 300 uM L-tryptophan, about 48 hours, fluorescence readout
Sequence (P14902 whole entry): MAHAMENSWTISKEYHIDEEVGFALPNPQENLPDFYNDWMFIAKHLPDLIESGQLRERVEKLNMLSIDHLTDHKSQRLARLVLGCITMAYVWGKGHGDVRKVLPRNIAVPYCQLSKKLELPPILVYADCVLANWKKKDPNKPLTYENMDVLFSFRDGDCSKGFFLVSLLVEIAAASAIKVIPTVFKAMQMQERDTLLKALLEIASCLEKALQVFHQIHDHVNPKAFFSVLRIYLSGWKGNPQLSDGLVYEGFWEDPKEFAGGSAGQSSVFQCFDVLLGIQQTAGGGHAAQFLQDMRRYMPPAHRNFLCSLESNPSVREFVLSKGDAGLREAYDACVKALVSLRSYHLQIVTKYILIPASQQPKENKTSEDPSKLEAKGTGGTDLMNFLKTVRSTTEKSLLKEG
endpoint: pIC50
Hey, just a heads up that pIC50 is the negative log base 10 of the concentration in molar.

N#Cc1ccc(C(=O)NC2(c3ccc(NC(=O)c4cccc(Cl)c4)cc3)CCC2)cc1 : 8.52
O=C(Nc1ccc(C2(C(=O)Nc3ccc(F)cc3)CC(F)(F)C2)cc1)c1cccc(F)c1 : 8.40
O=C(Nc1ccc(C2(C(=O)NC34CC(C3)C4)CCC2)cc1)c1cccc(Cl)c1 : 7.47

Consider the record given below.
Quick one: pIC50 for `O=C(Nc1ccc(C2(C(=O)Nc3ccc(F)cc3)CC(F)(F)C2)cc1)c1cncc(Cl)c1` ? 8.00
